# Target Entity: mutant MGL (Homo sapiens, UniProt Q99685, L169S/L176S)
# Construct: purified mutant MGL (mut-MGLL 11-313 L179S L186S)
# Protocol Notes: MGL ThermoFluor assay - mutant
# Type: binding
# Run Conditions: compound concentration measured by qNMR; read-out: MGL mutant ThermoFluor qKd (using qNMR conc.)
pKd: −log10 of the molar value.
I would appreciate it if you labelled entries y when pKd is 8 or higher, otherwise n.

Before answering, review these 2 worked examples.
- Cc1c(C(=O)N2CCC(C3CN(C(=O)c4nccs4)C3)CC2)sc2cc(C(F)(F)F)ccc12 [Cpd 60]: y
- O=C(c1ccc2c(ccn2-c2ccc(F)c(F)c2)c1)N1CC(C2CCN(C(=O)c3ccc[nH]3)CC2)C1 [Cpd 44]: n

Then there is this compound:
input: Please indicate if the recorded pKd for O=C(c1ccc(-c2ccc(C(F)(F)F)s2)cc1)N1CCC(C2CN(C(=O)c3cscn3)C2)CC1 [Cpd 55] meets or exceeds 8.
output: y

====

# Target Entity: MGL (Rattus norvegicus, UniProt Q8R431)
# Construct: one g rat brain was homogenized; from tissue; host or cells: rat brain homogenate
# Sequence (Q8R431 1-303): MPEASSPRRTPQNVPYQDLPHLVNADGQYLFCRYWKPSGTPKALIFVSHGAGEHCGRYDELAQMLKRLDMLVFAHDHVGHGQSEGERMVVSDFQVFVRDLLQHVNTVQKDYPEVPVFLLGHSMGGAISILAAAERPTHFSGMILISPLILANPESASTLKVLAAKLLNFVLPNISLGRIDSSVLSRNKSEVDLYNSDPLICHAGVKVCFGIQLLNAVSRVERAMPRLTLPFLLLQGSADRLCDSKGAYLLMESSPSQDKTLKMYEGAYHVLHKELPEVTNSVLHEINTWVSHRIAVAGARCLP
# Protocol Notes: 2-AG accumulation assay in rat brain homogenate
# Format: biochemical
# Run Conditions: compound @1 μM, read-out: Rat Brain 2AG % VehCntrl (%) @1 μM
# Protocol: After a 15-min incubation time at 37° C., CaCl2 (final concentration=10 mM) was added and then incubated for 15 min at 37° C. in a total volume of 5 mL. The reactions were stopped with 6 mL organic solvent extraction solution of 2:1 chloroform/methanol. Accumulated 2-AG in the organic phase was measured by a HPLC/MS method, according to the following equation: percent vehicle=(2-AG accumulation in the presence of compound/2-AG accumulation in vehicle)×100.
Measured Property: 2-AG accumulation, percent of vehicle control at 1 µM

• O=C(c1ccc2c(ccn2-c2ccc(F)cc2)c1)N1CC(C2CCN(C(=O)c3cscn3)CC2)C1 = 507%
• O=C(c1cccc(-c2cccc(F)c2)c1)N1CCC(C2CN(C(=O)c3ccc[nH]3)C2)CC1 = 225%
• O=C(c1ccc(Cc2ccc(C(F)(F)F)cc2)cc1)N1CCC(C2CN(C(=O)c3cscn3)C2)CC1 = 383%

input: Look up 2-AG accumulation, percent of vehicle control at 1 µM: `O=C(c1ccc2c(ccn2-c2ccc(F)cc2)c1)N1CCC(C2CN(C(=O)c3nccs3)C2)CC1`
output: 657%

====

Measured pKd, listed per entry for reference.
# Target Entity: mutant MGL (Homo sapiens, UniProt Q99685, L169S/L176S)
# Construct: purified mutant MGL (mut-MGLL 11-313 L179S L186S)
# Protocol Notes: MGL ThermoFluor assay - mutant
# Type: binding
# Run Conditions: 0.07 mg/ml mutant MGL, pH=7.0; read-out: MGL mutant ThermoFluor Kd
Bear in mind: pKd is minus log10 of a mol/L concentration; give just that figure.

• O=C(c1ccc[nH]1)N1CC(C2CCN(C(=O)c3ccc(-c4ccccc4)cc3F)CC2)C1 = 7.12
• O=C(c1ccc2c(ccn2-c2ccc(F)cc2)c1)N1CC(C2CCN(C(=O)c3nccs3)CC2)C1 = 8.60
• O=C(c1ccc2c(ccn2-c2ccc(C(F)(F)F)cc2)c1)N1CC(C2CCN(C(=O)c3cscn3)CC2)C1 = 7.80

input: Quick one: pKd for `Cc1c(C(=O)N2CC(C3CCN(C(=O)c4ccc[nH]4)CC3)C2)sc2cc(C(F)(F)F)ccc12` ?
output: 8.44

input: Which pKd reading was recorded for the compound `O=C(c1cscn1)N1CCC(C2CN(C(=O)c3ccc(-c4ccccc4)cc3F)C2)CC1` ?
output: 7.00

input: Which value of pKd has been reported for `O=C(c1ccc(Cc2ccc(C(F)(F)F)cc2)cc1)N1CC(C2CCN(C(=O)c3cscn3)CC2)C1` in the records?
output: 7.20

====

# Target Entity: purified wild type MGL (wt-MGLL 6H-11-313) (Homo sapiens)
# Sequence (Q99685 1-303): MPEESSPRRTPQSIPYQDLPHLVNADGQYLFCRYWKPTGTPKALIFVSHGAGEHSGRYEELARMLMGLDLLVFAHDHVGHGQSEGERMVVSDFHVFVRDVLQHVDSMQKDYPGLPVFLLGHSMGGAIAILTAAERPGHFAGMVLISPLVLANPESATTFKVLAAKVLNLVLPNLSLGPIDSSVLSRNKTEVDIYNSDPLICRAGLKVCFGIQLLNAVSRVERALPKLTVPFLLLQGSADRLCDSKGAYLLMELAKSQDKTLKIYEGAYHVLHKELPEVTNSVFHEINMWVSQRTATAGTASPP
Below: a set of entries, each annotated with reported pIC50.
Please report pIC50 as the negative decimal logarithm of the molar concentration, giving only the number.

* Cc1c(C(=O)N2CCC(C3CN(C(=O)c4nccs4)C3)CC2)sc2cc(C(F)(F)F)ccc12 | 8.00

input: Please look up its pIC50: `Cc1nc2cc(C(=O)N3CC(C4CCN(C(=O)c5nccs5)CC4)C3)ccc2n1-c1ccc(F)cc1`
output: 7.50

input: Item `O=C(c1cccc(-c2cccc(F)c2)c1)N1CC(C2CCN(C(=O)c3cscn3)CC2)C1` has what recorded pIC50?
output: 6.30

input: Record request: pIC50 value, item `O=C(c1ccc[nH]1)N1CC(C2CCN(C(=O)c3sc4cc(C(F)(F)F)ccc4c3Cl)CC2)C1`
output: 7.92

input: Any idea what pIC50 was measured for `O=C(c1ccc(-c2cccc(C(F)(F)F)c2)cc1)N1CC(C2CCN(C(=O)c3nccs3)CC2)C1` ?
output: 8.15

input: Would you kindly share the measured pIC50 for `O=C(c1nccs1)N1CCC(C2CN(C(=O)c3sc4cc(F)ccc4c3Cl)C2)CC1` ?
output: 8.15

input: What value of measured pIC50 is listed for `O=C(c1cccc(-c2cccc(F)c2)c1)N1CCC(C2CN(C(=O)c3ccc[nH]3)C2)CC1` ?
output: 7.33

====

# Target Entity: mutant MGL (Homo sapiens, UniProt Q99685, L169S/L176S)
# Construct: purified mutant MGL (mut-MGLL 11-313 L179S L186S)
# Protocol Notes: MGL ThermoFluor assay - mutant
# Type: binding
# Run Conditions: 0.07 mg/ml mutant MGL, pH=7.0; read-out: MGL mutant ThermoFluor Kd
Measured Property: pKd
The value called pKd is obtained by taking minus log10 of the concentration in mol/L.

# example entries with known answers
- O=C(c1ccc(Cc2cccc(C(F)(F)F)c2)cc1)N1CC(C2CCN(C(=O)c3cscn3)CC2)C1: 7.55
- Cc1c(C(=O)N2CC(C3CCN(C(=O)c4cscn4)CC3)C2)sc2cc(C(F)(F)F)ccc12: 8.30
- O=C(c1ccc[nH]1)N1CCC(C2CN(C(=O)c3ccc(-c4ccccc4)cc3F)C2)CC1: 7.54
- O=C(c1ccc2c(ccn2-c2ccc(C(F)(F)F)cc2)c1)N1CC(C2CCN(C(=O)c3nccs3)CC2)C1: 8.59
- O=C(c1ccc(Cc2cccc(C(F)(F)F)c2)cc1)N1CC(C2CCN(C(=O)c3nccs3)CC2)C1: 8.05
- O=C(c1nccs1)N1CCC(C2CN(C(=O)c3sc4cc(F)ccc4c3Cl)C2)CC1: 8.40

input: API: value(readout= pKd, system= mutant MGL (Homo sapiens, UniProt Q99685, L169S/L176S), query= `Cc1c(C(=O)N2CC(C3CCN(C(=O)c4nccs4)CC3)C2)sc2cc(C(F)(F)F)ccc12` )
output: 9.00

input: Item `O=C(c1ccc(-c2ccc(C(F)(F)F)s2)cc1)N1CC(C2CCN(C(=O)c3nccs3)CC2)C1` with mutant MGL (Homo sapiens, UniProt Q99685, L169S/L176S) - pKd?
output: 8.52

====

# Target Entity: MGL (Rattus norvegicus, UniProt Q8R431)
# Construct: one g rat brain was homogenized; from tissue; host or cells: rat brain homogenate
# Protocol Notes: 2-AG accumulation assay in rat brain homogenate
# Type: biochemical
# Run Conditions: compound @1 μM, read-out: Rat Brain 2AG % VehCntrl (%) @1 μM
2-AG accumulation, percent of vehicle control at 1 µM vs 400%: less than gives T; not less than gives F.

Here are 3 molecules together with their reported answers.
• O=C(c1ccc(-c2cccc(C(F)(F)F)c2)cc1)N1CC(C2CCN(C(=O)c3cscn3)CC2)C1 = T
• O=C(c1ccc(Cc2cccc(C(F)(F)F)c2)cc1)N1CCC(C2CN(C(=O)c3cscn3)C2)CC1 = T
• O=C(c1ccc2nc(-c3ccccc3)oc2c1)N1CC(C2CCN(C(=O)c3ccc[nH]3)CC2)C1 = T

input: Field: below-cutoff. Rule: recorded 2-AG accumulation, percent of vehicle control at 1 µM strictly less than 400%. Subject: `O=C(c1ccc(Cc2ccc(C(F)(F)F)cc2)cc1)N1CCC(C2CN(C(=O)c3nccs3)C2)CC1`
output: F

input: Consider `O=C(c1nccs1)N1CC(C2CCN(C(=O)c3ccc(-c4ccccc4)cc3F)CC2)C1` . Does its 2-AG accumulation, percent of vehicle control at 1 µM lie strictly below 400%?
output: T

input: 2-AG accumulation, percent of vehicle control at 1 µM under 400%? Item: `O=C(c1ccc[nH]1)N1CC(C2CCN(C(=O)c3ccc(-c4ccccc4)cc3F)CC2)C1`
output: T

input: Please let me know if `O=C(c1ccc2nc(-c3ccccc3)oc2c1)N1CC(C2CCN(C(=O)c3cscn3)CC2)C1` shows 2-AG accumulation, percent of vehicle control at 1 µM below 400%.
output: F

input: Determine if `O=C(c1ccc2c(ccn2-c2ccc(F)cc2)c1)N1CC(C2CCN(C(=O)c3ccc[nH]3)CC2)C1` shows 2-AG accumulation, percent of vehicle control at 1 µM strictly lower than 400%.
output: F
